Examples of variants with documented self-cleavage kobs at 10000 uM GlcN6P follow.
B1: glmS ribozyme (parent)
chain: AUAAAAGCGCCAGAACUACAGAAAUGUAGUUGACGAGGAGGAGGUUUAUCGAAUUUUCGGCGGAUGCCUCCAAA

Variants of: B1
Assay: self-cleavage kobs at 10000 uM GlcN6P; higher = faster cleavage; RNA array
Conditions: with glucosamine-6-phosphate
Variants at the floor of the assay were thinned out.

The cases that follow already have their self-cleavage kobs at 10000 uM GlcN6P on record.
[[record]]
changes = "C8G C61G C70A"
result = "< 1e-05 s⁻¹"

[[record]]
changes = "G62A C71A"
result = "< 1e-05 s⁻¹"

[[record]]
changes = "C11U G29A"
result = "0.000474 s⁻¹"


Q: Given the variant A33G U56A , write its reported self-cleavage kobs at 10000 uM GlcN6P.
Ans: < 1e-05 s⁻¹

Q: Given the variant C16U G41U A53U , write its reported self-cleavage kobs at 10000 uM GlcN6P.
Ans: 0.00071 s⁻¹

Q: Given the variant C11U C16U , write its reported self-cleavage kobs at 10000 uM GlcN6P.
Ans: 0.00196 s⁻¹

Q: Given the variant C50U G59C , write its reported self-cleavage kobs at 10000 uM GlcN6P.
Ans: < 1e-05 s⁻¹

Q: Given the variant C16U U47C , write its reported self-cleavage kobs at 10000 uM GlcN6P.
Ans: 0.00228 s⁻¹

Q: Given the variant U46C A53G , write its reported self-cleavage kobs at 10000 uM GlcN6P.
Ans: 0.00272 s⁻¹

Q: Given the variant C16U G62C , write its reported self-cleavage kobs at 10000 uM GlcN6P.
Ans: < 1e-05 s⁻¹

Q: Given the variant C11U G66U , write its reported self-cleavage kobs at 10000 uM GlcN6P.
Ans: 2.69e-05 s⁻¹
